target: Monoamine transporters; serotonin & dopamine (Rattus norvegicus) (UniProt P31652+P23977); experiment: Selectivity for SERT over DAT; assay type: protein assay
Sequence (P23977 whole entry, looked up): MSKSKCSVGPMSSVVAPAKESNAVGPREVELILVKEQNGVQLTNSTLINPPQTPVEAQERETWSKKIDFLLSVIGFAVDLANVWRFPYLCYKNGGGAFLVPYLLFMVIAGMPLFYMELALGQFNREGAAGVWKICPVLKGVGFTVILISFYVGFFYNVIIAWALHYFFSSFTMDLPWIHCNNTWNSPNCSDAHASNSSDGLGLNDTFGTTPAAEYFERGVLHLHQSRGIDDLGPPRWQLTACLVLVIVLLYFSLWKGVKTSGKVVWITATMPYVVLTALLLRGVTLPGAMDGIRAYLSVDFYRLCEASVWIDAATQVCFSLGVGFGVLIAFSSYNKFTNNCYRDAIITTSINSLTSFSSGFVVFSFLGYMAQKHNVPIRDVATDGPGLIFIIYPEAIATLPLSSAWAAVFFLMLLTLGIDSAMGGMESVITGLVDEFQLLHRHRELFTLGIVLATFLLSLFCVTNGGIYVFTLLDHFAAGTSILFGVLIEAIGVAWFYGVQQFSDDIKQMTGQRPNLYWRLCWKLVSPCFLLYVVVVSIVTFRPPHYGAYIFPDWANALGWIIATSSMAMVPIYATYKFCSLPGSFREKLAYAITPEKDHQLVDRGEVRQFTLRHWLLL
Sequence (P31652 whole entry, looked up): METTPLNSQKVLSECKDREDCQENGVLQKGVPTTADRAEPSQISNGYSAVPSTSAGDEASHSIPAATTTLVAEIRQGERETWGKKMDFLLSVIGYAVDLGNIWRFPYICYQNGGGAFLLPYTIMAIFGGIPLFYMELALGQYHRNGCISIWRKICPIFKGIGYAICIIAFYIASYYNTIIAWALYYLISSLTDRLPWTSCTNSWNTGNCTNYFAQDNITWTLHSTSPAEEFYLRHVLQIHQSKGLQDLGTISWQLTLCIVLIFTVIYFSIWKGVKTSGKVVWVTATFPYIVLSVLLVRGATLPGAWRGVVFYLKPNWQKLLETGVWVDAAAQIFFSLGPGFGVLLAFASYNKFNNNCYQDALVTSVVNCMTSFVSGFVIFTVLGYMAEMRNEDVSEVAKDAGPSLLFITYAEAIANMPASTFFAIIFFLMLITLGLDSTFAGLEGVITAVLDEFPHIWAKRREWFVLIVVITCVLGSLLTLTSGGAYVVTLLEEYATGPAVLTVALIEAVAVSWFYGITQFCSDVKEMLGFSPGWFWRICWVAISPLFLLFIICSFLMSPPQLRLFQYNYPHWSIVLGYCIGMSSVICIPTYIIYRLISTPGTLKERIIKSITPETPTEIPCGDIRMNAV
Measurement kind: Ratio Ki
In your answer, state the number alone without any accompanying words.

Compound: COC(=O)[C@@H]1CN(C)CC[C@@H]1c1ccc(-c2ccsc2)cc1
Tested system: Monoamine transporters; serotonin & dopamine (Rattus norvegicus) (UniProt P31652+P23977)
Ratio Ki: 188

Compound: COC(=O)[C@H]1[C@@H](c2ccc(I)cc2)C[C@@H]2CC[C@H]1N2C
Tested system: Monoamine transporters; serotonin & dopamine (Rattus norvegicus) (UniProt P31652+P23977)
Ratio Ki: 2.1

Compound: COC(=O)[C@@H]1CN(C)CC[C@@H]1c1ccc(C=O)cc1
Tested system: Monoamine transporters; serotonin & dopamine (Rattus norvegicus) (UniProt P31652+P23977)
Ratio Ki: 5.8

Compound: COC(=O)[C@@H]1CN(C)CC[C@@H]1c1ccc(-c2nccs2)cc1
Tested system: Monoamine transporters; serotonin & dopamine (Rattus norvegicus) (UniProt P31652+P23977)
Ratio Ki: 1

Compound: COC(=O)[C@@H]1CN(C)CC[C@@H]1c1ccc(/C=C\I)cc1
Tested system: Monoamine transporters; serotonin & dopamine (Rattus norvegicus) (UniProt P31652+P23977)
Ratio Ki: 15.6

Task: What Ratio Ki value was documented for this compound, "COC(=O)[C@@H]1CN(C)CC[C@@H]1c1ccc(I)cc1" ?
Output: 11.2

Task: What Ratio Ki value was documented for this compound, COC(=O)[C@@H]1CN(C)CC[C@@H]1c1ccc(-c2nccs2)cc1 (racemic) ?
Output: 2

Task: What Ratio Ki value was documented for this compound, "COC(=O)[C@@H]1CN(C)CC[C@@H]1c1ccc(-c2ccco2)cc1" ?
Output: 11.1
